# test-protocol: T. gondii growth inhibition with IFN-gamma, primary screen, cell-based (AID 1259416);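 note: host cells are HeLa cells infected with Toxoplasma gondii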
# condition-set: Toxoplasma gondii growth in IFN-gamma-treated host cells; concentration not given here
Among all 69,000 compounds or so, about 2,600 (3.8%) were called active. Cut-off read from the data, not from the text of the source: active = activity change below about -70% (passing the limit was not always enough); inconclusive = no clear call, values can overlap the other calls. The full list was thinned out, with actives kept by preference.
Result category, one only: TRUE (active), FALSE (inactive)

Illustrative cases are given below, each with its answer.
O=S(=O)(c1ccccc1)N1CC2CN(Cc3ccc(O)cc3)CC2C1 (stereo unspecified)
FALSE
c1ccc(N2CCC3(COCCN(c4ncccn4)C3)C2)nc1 (stereo unspecified)
FALSE
CCOCCn1nc(C)cc1C(=O)N1CCCC2(CNC(=O)O2)C1 (stereo unspecified)
FALSE

**Query** What classification did Cc1ccccc1NC(=O)c1ccc2ccc(N3CCN(CC4CC4)CC3)n2c1 end up with in this test?
**Result** FALSE

**Query** What classification did O=C(Nc1ccccc1N1CCOCC1)NC1CCN(C(=O)OCc2ccccc2)CC1 end up with in this test?
**Result** TRUE

**Query** What classification did Cc1ccc(S(=O)(=O)Nc2cncc(C(=O)NCC(C)C)c2)cc1 end up with in this test?
**Result** FALSE

**Query** What classification did COc1ccc(OC)c(CNC(=O)Cn2ncc3c(N4CCCC4)ncnc32)c1 end up with in this test?
**Result** FALSE

**Query** What classification did CC(=O)Nc1ccccc1OC(=O)N1CCOCC1 end up with in this test?
**Result** FALSE

**Query** What classification did Cc1nc(-c2cccc(F)c2)sc1CCNC(=O)C12CC3CC(CC(C3)C1)C2 end up with in this test?
**Result** FALSE

**Query** What classification did Cc1ccc2[nH]c3c(c2c1)CCNC31C(=O)N(C)c2ccc(Br)cc21 (stereo unspecified) end up with in this test?
**Result** FALSE

**Query** What classification did CCOC(=O)N1CCC(NCc2ccccc2-n2ccnc2C)CC1 end up with in this test?
**Result** FALSE

* * *

# test-protocol: T. gondii growth inhibition with IFN-gamma, primary screen, cell-based (AID 1259416);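 note: host cells are HeLa cells infected with Toxoplasma gondii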
# condition-set: Toxoplasma gondii growth in IFN-gamma-treated host cells; stronger effect = lower value; concentration not given here
Screen size: about 69,000 compounds; about 2,600 (3.8%) were called active. Many of the other results were omitted from the sample, so actives are more common in it than they were.
The reader will find reported activity change, negative = inhibition values listed item by item below.
Give your result in % as a bare value.

Here's what some known entries look like.
Cc1cccnc1CN(C)C(=O)c1cc(CN2CCC(Cc3ccccc3)CC2)on1
9.1
CC[C@]1(O)C[C@@H]2CN(CCc3c([nH]c4ccccc34)[C@@](C(=O)OC)(c3cc4c(cc3OC)N(C)[C@H]3[C@@](O)(C(=O)OC)[C@H](OC(C)=O)[C@]5(CC)C=CCN6CC[C@]43[C@@H]65)C2)C1
-97.6
COCc1ccc(C(=O)Nc2ccc3nc(C)[nH]c3c2)o1
-55.3
COC(=O)Nc1nc2ccc(C(=O)C3CC3)cc2[nH]1
-69.3
COCC1CN(c2ccc(C)nn2)Cc2cnn(C)c21 (stereo unspecified)
-0.315
O=C(C1CC=CC1)N1CCC2(CCN(Cc3cccc(F)c3)CC2)C1
-9.86

**Query** Provide activity change, negative = inhibition value for the following compound: CNC[C@H]1OCCCC[C@@H](C)Oc2ccc(NS(=O)(=O)c3ccc(F)cc3)cc2C(=O)N([C@H](C)CO)C[C@H]1C
**Result** 193

**Query** Provide activity change, negative = inhibition value for the following compound: CN(C)C(=O)[C@@H]1CCS(=O)(=O)[C@H]2CN(C(=O)NCc3ccccc3)C[C@@H]12
**Result** 7.18

**Query** Provide activity change, negative = inhibition value for the following compound: C[C@@H]1CCCCO[C@@H](CN(C)S(=O)(=O)c2ccccc2)[C@H](C)CN([C@H](C)CO)C(=O)c2cc(NC(=O)Nc3ccc4c(c3)OCO4)ccc2O1
**Result** -79.4

**Query** Provide activity change, negative = inhibition value for the following compound: C[C@@H]1CN([C@H](C)CO)C(=O)c2cc(NC(=O)NC3CCCCC3)ccc2O[C@@H](C)CCCCO[C@H]1CN(C)S(C)(=O)=O
**Result** -35.8

**Query** Provide activity change, negative = inhibition value for the following compound: COc1ccc(S(=O)(=O)Nc2ccc3c(c2)C(=O)N([C@@H](C)CO)C[C@H](C)[C@H](CN(C)Cc2ccc(C(F)(F)F)cc2)OCCCC[C@@H](C)O3)cc1
**Result** -47

**Query** Provide activity change, negative = inhibition value for the following compound: CC(NC(=O)CCc1c[nH]c2ccccc12)c1cn2ncsc2n1 (stereo unspecified)
**Result** 23.4

**Query** Provide activity change, negative = inhibition value for the following compound: c1ccc2ncc(-c3ccncn3)cc2c1
**Result** 1.85

**Query** Provide activity change, negative = inhibition value for the following compound: COc1ccc(S(=O)(=O)Nc2ccc3c(c2)C(=O)N([C@@H](C)CO)C[C@@H](C)[C@H](CN(C)Cc2ccc(C(F)(F)F)cc2)OCCCC[C@@H](C)O3)cc1
**Result** -112

**Query** Provide activity change, negative = inhibition value for the following compound: C[C@@H]1CCCCO[C@H](CN(C)C(=O)CCCN(C)C)[C@H](C)CN([C@@H](C)CO)C(=O)c2cc(NS(=O)(=O)c3ccc(Cl)cc3)ccc2O1
**Result** -84.8

**Query** Provide activity change, negative = inhibition value for the following compound: CNC[C@@H]1OCCCC[C@H](C)Oc2ccc(NS(=O)(=O)c3ccc(F)cc3)cc2C(=O)N([C@@H](C)CO)C[C@@H]1C
**Result** 41.1
